Source listed as ChEMBL document CHEMBL3244067.

Listed next: entries and their corresponding fold change (FC).
# assay explanation: Spasmogenic activity in nulliparous guinea pig uterine relative to PGE2
# Type: functional, Cavia porcellus, Uterus
Lab note: jot the number down without any unit.

Worked examples follow.
CCCCC[C@H](O)/C=C/[C@H]1[C@H](O)CC(=O)[C@@H]1C/C=C\CCCC(=O)NC(C)=O	65
CCCCC[C@H](O)/C=C/[C@H]1[C@H](O)CC(=O)[C@@H]1C/C=C\CCCc1nnn[nH]1	100
CCCCC[C@H](O)/C=C/[C@@H]1[C@@H](C/C=C\CCCC(=O)NC(C)=O)[C@@H](O)C[C@H]1O	30
CCCCC(C)(C)[C@H](O)/C=C/[C@H]1[C@H](O)CC(=O)[C@@H]1C/C=C\CCCc1nnn[nH]1	120
CCCCC[C@H](O)/C=C/[C@H]1[C@H](O)CC(=O)[C@@H]1C/C=C\CCCC(=O)NS(=O)(=O)c1ccccc1	3.1
CCCCC[C@H](O)/C=C/[C@H]1[C@H](O)CC(=O)[C@@H]1C/C=C\CCCC(=O)NS(C)(=O)=O	7
CCCCC[C@H](O)/C=C/[C@H]1[C@H](O)CC(=O)[C@@H]1C/C=C\CCCC(N)=O	0.6

Query block: Which fold change (FC) is listed for CCCCC(C)(C)[C@H](O)/C=C/[C@H]1[C@H](O)CC(=O)[C@@H]1C/C=C\CCCC(=O)NC(C)=O ?
Result block: 100
